The measurements presented in this section are drawn from the supplement of paper PMC10307832.

Test system: NCI-H2126
test: relative viability (nuclei count vs DMSO), 5 days (fraction); higher = more cells survive
condition details: first compound 50 µM
Quick reference for relative viability among some compounds
// no unit string in output, number only

Take a look at these entries with their results.
1) O=C(O)CCCCC(CCSCc1ccccc1)SCc1ccccc1 (stereo not drawn) [CPI-613] + CCNC(=O)c1noc(-c2cc(C(C)C)c(O)cc2O)c1-c1ccc(CN2CCOCC2)cc1 [Luminespib] (partner 0.01 µM) = 0.85
2) O=C(O)CCCCC(CCSCc1ccccc1)SCc1ccccc1 (stereo not drawn) [CPI-613] + N=C(N)NC(=N)NCCc1ccccc1 [Phenformin] (partner 250 µM) = 0.585
3) O=C(O)CCCCC(CCSCc1ccccc1)SCc1ccccc1 (stereo not drawn) [CPI-613] + COc1cc2c(Oc3ccc(NC(=O)C4(C(=O)Nc5ccc(F)cc5)CC4)cc3F)ccnc2cc1OCCCN1CCOCC1 [Foretinib] (partner 0.25 µM) = 1.09
4) O=C(O)CCCCC(CCSCc1ccccc1)SCc1ccccc1 (stereo not drawn) [CPI-613] + O=C(CCCCCCC(=O)Nc1ccccc1)NO [Vorinostat] (partner 1 µM) = 0.831
5) O=C(O)CCCCC(CCSCc1ccccc1)SCc1ccccc1 (stereo not drawn) [CPI-613] + C[C@@H](Oc1cc(-c2cnn(C3CCNCC3)c2)cnc1N)c1c(Cl)ccc(F)c1Cl [Crizotinib] (partner 1 µM) = 0.942

## Task # input compound: O=C(O)CCCCC(CCSCc1ccccc1)SCc1ccccc1 (stereo not drawn) [CPI-613] + CC(=O)Nc1cccc(-n2c(=O)n(C3CC3)c(=O)c3c(Nc4ccc(I)cc4F)n(C)c(=O)c(C)c32)c1 [Trametinib] (partner 0.02 µM) ; wanted: its relative viability
## Result 0.615

## Task Data request, read-out relative viability, for O=C(O)CCCCC(CCSCc1ccccc1)SCc1ccccc1 (stereo not drawn) [CPI-613] + C[C@]1(O)C[C@@H](c2nc(-c3ccc4ccc(-c5ccccc5)nc4c3)c3c(N)nccn32)C1 [Linsitinib] (partner 1 µM)
## Result 0.712

## Task May I ask what relative viability has been recorded for O=C(O)CCCCC(CCSCc1ccccc1)SCc1ccccc1 (stereo not drawn) [CPI-613] + Cc1nc(NC(=O)N2CCC[C@H]2C(N)=O)sc1-c1ccnc(C(C)(C)C(F)(F)F)c1 [Alpelisib] (partner 2 µM) ?
## Result 0.78

---

Tested on: SW 900
test: relative viability (nuclei count vs DMSO), 5 days (fraction); higher = more cells survive
condition details: first compound 0.253 µM
measurement type: relative viability
Returns: the value as a bare number; no unit string appended.

1. Cc1cnc(-c2cnc(NCCNc3ccc(C#N)cn3)nc2-c2ccc(Cl)cc2Cl)[nH]1 + Nc1nc2[nH]cc(CCc3ccc(C(=O)N[C@@H](CCC(=O)O)C(=O)O)cc3)c2c(=O)[nH]1 [Pemetrexed] (partner 0.2 µM) = 0.487
2. O=c1[nH]c2ccccc2n1C1CCN(CCCC(c2ccc(F)cc2)c2ccc(F)cc2)CC1 [Pimozide] + Cc1nc(Nc2ncc(C(=O)Nc3c(C)cccc3Cl)s2)cc(N2CCN(CCO)CC2)n1 [Dasatinib] (partner 0.075 µM) = 0.816

## Task Query (compound): O=c1[nH]c2ccccc2n1C1CCN(CCCC(c2ccc(F)cc2)c2ccc(F)cc2)CC1 [Pimozide] + CC(=O)c1c(C)c2cnc(Nc3ccc(N4CCNCC4)cn3)nc2n(C2CCCC2)c1=O [Palbociclib] (partner 0.5 µM) ; field requested: relative viability
## Result 0.572

## Task Quick one: relative viability for Cc1cnc(-c2cnc(NCCNc3ccc(C#N)cn3)nc2-c2ccc(Cl)cc2Cl)[nH]1 + O=C(CCCCCCC(=O)Nc1ccccc1)NO [Vorinostat] (partner 1 µM) ?
## Result 0.49

## Task What does the record list as relative viability for Cc1cnc(-c2cnc(NCCNc3ccc(C#N)cn3)nc2-c2ccc(Cl)cc2Cl)[nH]1 + COc1cccc2cc(-c3nc([C@H]4CC[C@H](C(=O)O)CC4)n4ncnc(N)c34)[nH]c12 [OSI-027] (partner 0.5 µM) ?
## Result 0.56
